Ref: the domain aggregation screens of Martell et al. (2025)

- assay_name: soluble fraction after stress (log2 fold change); higher = more stays soluble; pooled small domains, quantitative proteomics
- condition_label: stress: 50 degC
Listing of recorded soluble fraction (log2) by entry.

macromolecule_sequence | soluble fraction (log2)
HMEQVVFNGTGRRKSSIARVRIMSGKGNITVNGKALDEYFGEETLKVIVRQPLTVTDTLDKYDVIATVK | 0.203
HMTHPAHLARIGALIRSARQHEGLTQAQLAELLGTSQSAIHRIEQGGQNITLDMLTRISAALDSEIVTIG | -0.921
HMGTRYVEFVIPGTGNHEVRIVSSNGSRQNVEVAGTYPGGARLRTKVDNGVRRVSFYVDNRLVEEKQ | 0.0416
HMESSYKGFILDIETRQFSPTLIQRRGIAINPSGIVETTTEFSFATQEKVLIEDLKLIIDELDLRADY | -4.07
HMGVSLKEIQENLSLIDDAAQKLASGQGTVDDAVGMGNAGKDIYDNIEGYVSSPKEFINGVLSSV | -0.104
HMKNNITFSEFLHEVDNGRVIKVNIQGNNITGILADGKSFNTYTPNDPSLIEKLTSKGVSISATPI | 0.0489
HMAIGERIRFLRTLRRMTQKELGLAAGFPEKNASIRMAQYENGTRTPKAELTAVLAEILKVSPQALTV | -1.2
HMHMIDDYLARIGQLIRDARQHRGWTQVQLAEALGTSQSAVNRIERGNQNISLEMIARIGEALGSEIVSLG | -1.62
HMYRSGGYTGAGKDDEEAGVVHRNEFVNTADAVRNPHVKRFLDVFNVAQKDGTIRMLNTSQILERARLDA | 0.123
HMEFLLAIQPFVLLTDHANLTFLREQTDSMMKRIQINISGFEIEFRYVPGLTNILPDKMSRV | -0.0431
HMLVSPLDEIPGIGRNRKKTLLNHFGSAKTIEGASLEDLKKVDGISELIAKKIYNYFHLNKNF | -0.411
HMTLSDIGHAVRTRRTELGLSQVQLARLSGLSRQTLVGLENGTLNDLGINRVAQLLAVLGLDAP | -0.827
HMLTKSELVFDTLKKRIIDGELEPGTELVISRISEEFNVSTIPVREAIKTLASEGLVEMEPHKSAKVAE | -0.0631
HMSNSMISKDKAMSIALAKVSGATSSNIYIELEKDDGRYTYEGEINFNNKEYEFEIDAYTGNILKWEVDSI | -0.333
HMNISLGALVTITDQKGRSHTVTLESGKQFFTNHGSINHDEIIKAGEGGVVASSSGMLYTIFTP | -0.836
HMSAQDLIVRRDSARIEARVTEISPTEIRYKRASNPDGPTYVLPLGDVRSIRYANGEEEVFAPA | -0.138
HMVVNERIKKLRRSLDLTQQEFADRIGVKRNTIANYEIGRNEPIDSVLELIVREFGVSKQWLLDGTGEMF | -0.55

* * *

- assay_name: soluble fraction after stress (log2 fold change); higher = more stays soluble; pooled small domains, quantitative proteomics
- condition_label: stress: 50 degC
Tag: 1 if measured soluble fraction (log2) is not below -0.07, -1 if it is.

macromolecule_sequence | cat
HMFKMRVNGKEVIGMAITAKPQANPIDVADEIKKFVIDANTKLPSTMKLEVLYDATGIFRASISEVIS | -1
HMKNENSLLVSRLAEEKIINRAKLVLMEYLKLSEPQAHRYIEKQAMDLQISRAEVAARVLETYE | 1
HMTGGLLVHVAGAVGAPGVVSLPEGARVVDAIEAAGGAREDADTDQLNLARPVVDGEQVRVPVVGEVLE | -1
HMETLETYTSRLRQLEDITNNFKGVDKSFAIQAGREIRVMVVPEQVSDADMILMARDISKAIEAELEYPGQ | -1
HMHFIMEYRIRAYVDELFESAPRTQRAYELKIELTQNLIDKYYALVSEGKSEQDAYNLTVMSIGDVREL | -1
HMGETISVPAVRSLAYDRAVDMLTAEGLKGIVADSVYDNRTQPGTVIEQNPKAGTIVKEGREVYLTINA | 1
HMGSLNDQVMKYIDALPSAFNKRELDFLIERGVKEFALNGEYLEKAIINEYKLTADTYHRER | 1
HMRNTPQRRHAILALLSEQGEVSVDALAKRFSTSEVTIRKDLAAMESHGLLLRRYGGAVPMPQELI | -1
HMSQRITYTEFVQMVKDDKVEKVEVGANQYNITPKSDDKTLVKMTYYTGFIKDENLLDLLNKHKVEIDGYI | 1
HMFIMQTVALGSEGPDVRALQSILNRIGYNAGTVDGIFGSRTRQAVIAFQRNNGLAADGVAGPATWG | 1
HMLAPLAEMRGDTLDRLEKAVLELFSSRDFHEVSLQDVARRANVSLQTIYKYFGSKEALVYTMLDTLLGR | -1
HMNDIDKFVAALVDQDTMAGTNRAFDENDIQTMKNMSSIEDVKQYAVANGLSSGKVNNALISAGL | 1
HMILNNAKINTELNSLAEFTQRSLDSNTSEIGFYDYKKISYIASFATMKTTNWNVIIRAPINEFMGTVN | 1
HMIEINNLEDLKLMKEFILKNGKYGFGVFVGGKYIGLSDIGSVNSFKDTLGLPVVSLGNDDFKRFTEAH | -1
HMAQVRSTVERRENGTYTVELNLNDDVDNVMRLQLMVATKEMAEDLAQRFQKNPEQVYSQLVTALYG | 1
HMNESPVLAVLTPTERKVASLVAEGLTNQAIAARMILAEGTVKNHVSTLLHKLQAPDRTALALTLYKAFQ | -1
HMALLSNTVDELHAGMRLDSYLFESGLYPSRSFAVKQIEAGKVFLNGDAVTKKTLVSNGDFIVYELEE | -1
HMRTYEHALTEEEKELILIVSNLSEYKSLPPSQIVPKLADLGIYIASESSFYRVLRAHNQLHHRGR | -1
HMPRVSIEKIKKVVELLKHNPDYTYSKIGNIVGIGRKTVSGINNGKLYTDLVEELGINEFPI | -1
HMDTQKYDLNDDGRFDVQDVTYLQIKIAGDGELTDNQKKIADYNNDGKIDVQDVTSAQMLIS | -1
HMKIAEALNLRGDADSYERQEAIWLLEHIVGMSALELKYRGEQDLTEDQLQQYRSGLQRLEQGEPLAYVIG | -1
HMINDKLQHLFSLFPAMDKELKRKGITRQILWVEYKKQYPLGFGRSQFNSYFAAWKAQVSPS | -1
HMIILDASASRAIGNGTIEETKWDFGNGESSTNRGGPIVERQIYANQAAYILKLSMKTNDGQLFTKEIQLL | 1
HMHQPPDLDDFEAFVGRVKPALLQALVATYGPVDGREATVDALSWAWEHWDRLADVDHPVGYLYRV | 1
HMFAVPAPEVDDILSEKKVDVLLLGPQVRYLLEQFTEKLKDKNIPIGVIPMVDYGMMNGSKVLALAEELIG | 1
HMSNVIYFNYNDYKFLFMGDAGVDKETDILEKYTLSNIDFLKVGHHGSDTSSNKGFIDSIQPKYSLIS | -1
HMKPFSLESYKAFVVKRLGLFPETSSAQMHDWLKEEYPDFPLITPRTVYNFVMKIRQDYGIAKV | -1
HMEWVVVPDVRRQLLPEAQRRVNKARLRLEVAGGWPAEPLLAMVVDQKPGPETRVPLNSIVVVVVRNLP | 1
HMNQEIELLLREPDFTSAARLAMAINERFTNSARAIDPTSVKVRMPEGLDQASVDFVARLEDIEMSPDT | 1
HMNIDEIFLTKNEIYFSFEYQKKSQLDRYSKIISLDHRIDKNTAYAYANKKQFLNFINLNIDYKIIDNSF | -1
HMGSLGRAIRSRREKMKVGLEELAAKTGLSESHISDIEEGRGFAPVGDILKIARALTIDPGELLK | 1
HMSGSGYAYVDKYGYSHVVKDYDTAKNYASDGNVYNYSGSHKGGYAYDADNYRVPLDLPGSKPYG | 1
HMAMDYEGFKKSVYALTSIDLNAYKERQMKRRIDTLIAKNKYNGYEDYTAAIKKDKALFEEFVNYLTIN | -1

* * *

- assay_name: soluble fraction after stress (log2 fold change); higher = more stays soluble; pooled small domains, quantitative proteomics
- condition_label: stress: 50 degC
Listing of recorded soluble fraction (log2) by entry.

macromolecule_sequence | soluble fraction (log2)
HMASLSRRELEVLELLALRLTVKEVAERLVISELTAKRHTSNIYQKLGVNRRRDALAAAQARGLLGAR | -2.9
HMISENFVEAKILLTEDNRPKSLEILKDIIRQHDKVYSPLSLFLILDEDLEENKEIILEYFDLVLS | -0.185
HMISASDLQTYLKGMDYPARKEDLIVHAQRNNAPESVIAAIRQFSDRTYQSAADVSEEFGKI | 0.19
HMITALLPGTVLIREFDGRDYHVTVATDGRFEMDGHKYPSLSAVAKHITGTQWSGPAFFGLN | -1.75
